Target: T1, human DLL3 protein (human, UniProt Q9NYJ7 27-492, limits assumed)
T1 construct: Soluble human DLL3 protein used in BLI; also called Delta-like protein 3
T1 sequence (looked up): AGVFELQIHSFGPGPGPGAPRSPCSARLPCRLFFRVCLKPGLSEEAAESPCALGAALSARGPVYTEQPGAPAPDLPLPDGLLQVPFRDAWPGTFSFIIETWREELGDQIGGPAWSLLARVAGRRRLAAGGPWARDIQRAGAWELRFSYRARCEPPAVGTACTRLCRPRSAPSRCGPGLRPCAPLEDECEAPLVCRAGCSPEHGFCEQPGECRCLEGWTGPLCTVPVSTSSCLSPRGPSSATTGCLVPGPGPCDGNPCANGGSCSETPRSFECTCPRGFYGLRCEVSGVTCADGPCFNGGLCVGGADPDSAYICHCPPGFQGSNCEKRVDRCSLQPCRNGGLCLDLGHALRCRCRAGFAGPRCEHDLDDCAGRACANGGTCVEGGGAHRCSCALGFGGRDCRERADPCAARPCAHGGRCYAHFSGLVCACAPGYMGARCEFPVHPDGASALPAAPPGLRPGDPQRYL
Test: BLI, scFv-Fc against human DLL3 protein
measurementName: kon (M⁻¹ s⁻¹)
Give bare numbers, in M⁻¹ s⁻¹.

Can you look up the measured kon of Ab.73 scFv-human IgG Fc (Fc fusion, Tested as scFv-human IgG Fc; not shown: human IgG Fc) DVVMTQSPLSLPVTLGQPASISCRSSQSLGYSDGDTYLIWFLQRPGQSPRRLIYKVSNRDSGVPDRFSGSGSGTDFTLKISRVEAEDVGVYYCMQGTHWPYTFGQGTKLEIKGGGGSGGGGSGGGGSQVQVQESGPGLVKPSETLSLTCTVSTGSFSSHYWSWIRQPPGKSLEYIGYIYYTGTTNYNPSLKSRVTISVDTSKNQFSLNVNSVTAADTAVYYCAREGTFDIWGQGTMVTVSS for me?
193000
